- ASSAY_PROTOCOL: inhibitors of firefly luciferase expression or activity, dose response, H4 neuroglioma cells, luminescence (AID 1990)
- Format: functional, cell-based
Activity calls are given as the source filed them.

- COMPOUND: "O=S(=O)(Nc1cccc2ncccc12)c1cccs1"
  EC50: "15.3 µM (active)"
- COMPOUND: "CC(C)(C)c1ccc(C(=O)NNC(=S)NC(=O)c2cccnc2)cc1"
  EC50: "14.4 µM (active)"
- COMPOUND: "COc1cc([C@@H]2c3cc4c(cc3[C@@H](O)[C@@H](CO)[C@@H]2CO)OCO4)cc(OC)c1O[Si](C)(C)C(C)(C)C"
  EC50: "15.9 µM (active)"
- COMPOUND: "CCCCCCCn1c(NC(=O)CC)nc2ccccc21"
  EC50: "11.4 µM (active)"
- COMPOUND: "COc1cc([N+](=O)[O-])cc(/C=N/NC(=O)c2ccc(NC(=O)c3ccc(C)cc3)cc2)c1O"
  EC50: "2.62 µM (active)"
- COMPOUND: "Cc1[nH]c2ccc(-c3nnc(S)n3C)cc2c1C"
  EC50: "8.15 µM (active)"
- COMPOUND: "CCC(C)Nc1nc(N)c([N+](=O)[O-])c(Nc2cc(OC)ccc2OC)n1 (stereo not drawn)"
  EC50: "10.7 µM (active)"
- COMPOUND: "CC/C(C)=C1\\SC(N2CCN(c3cccc(C(F)(F)F)c3)CC2)=NC1=O"
  EC50: "19.9 µM (active)"

---

- MEASURED_ON: Cytochrome P450 1A2 (Homo sapiens)
- Sequence (P05177 whole entry): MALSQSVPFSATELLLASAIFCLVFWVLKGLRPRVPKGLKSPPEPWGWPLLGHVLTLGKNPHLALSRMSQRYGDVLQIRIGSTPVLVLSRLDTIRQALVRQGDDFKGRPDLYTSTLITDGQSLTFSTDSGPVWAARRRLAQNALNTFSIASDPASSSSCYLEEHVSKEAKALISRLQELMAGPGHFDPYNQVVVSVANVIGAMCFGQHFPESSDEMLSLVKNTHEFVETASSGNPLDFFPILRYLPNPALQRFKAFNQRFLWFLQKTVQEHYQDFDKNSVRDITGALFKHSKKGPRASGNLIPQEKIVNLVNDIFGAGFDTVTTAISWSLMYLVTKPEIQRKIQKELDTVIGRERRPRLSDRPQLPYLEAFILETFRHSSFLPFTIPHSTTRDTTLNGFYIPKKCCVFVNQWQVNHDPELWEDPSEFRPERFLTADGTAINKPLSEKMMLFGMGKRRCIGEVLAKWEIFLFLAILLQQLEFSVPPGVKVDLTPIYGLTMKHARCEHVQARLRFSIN
ATTRIBUTE_MEASURED: AC50

- COMPOUND: "CC(C)(C)C(=O)Nc1nnc(SCC(=O)NCc2cccs2)s1"
  MEASURED_ON: "Cytochrome P450 1A2 (Homo sapiens)"
  READING: "22.4 µM (inconclusive)"
- COMPOUND: "COc1c(O)ccc2c1CN1CCc3cc4c(cc3[C@@H]1C2)OCO4"
  MEASURED_ON: "Cytochrome P450 1A2 (Homo sapiens)"
  READING: "0.501 µM (inconclusive)"
- COMPOUND: "CNc1nc(C)cc(C)c1S(=O)(=O)c1ccc(Cl)cc1"
  MEASURED_ON: "Cytochrome P450 1A2 (Homo sapiens)"
  READING: "28.2 µM (inconclusive)"
- COMPOUND: "O=[N+]([O-])c1ccc(C2CCCC/C2=N\\OCc2cccc(F)c2)c([N+](=O)[O-])c1 (stereo not given)"
  MEASURED_ON: "Cytochrome P450 1A2 (Homo sapiens)"
  READING: "15.8 µM (inconclusive)"
- COMPOUND: "NNC(=O)Cc1cccnc1"
  MEASURED_ON: "Cytochrome P450 1A2 (Homo sapiens)"
  READING: "0.631 µM (inconclusive)"
- COMPOUND: "O=C(CSc1nnnn1C1CCCC1)Nc1ccc(F)cc1"
  MEASURED_ON: "Cytochrome P450 1A2 (Homo sapiens)"
  READING: "25.1 µM (inconclusive)"
- COMPOUND: "COc1ccc2c3c(ccc2c1)N[C@H](C(=O)O)CC3"
  MEASURED_ON: "Cytochrome P450 1A2 (Homo sapiens)"
  READING: "0.501 µM (inconclusive)"
- COMPOUND: "CSc1nc2n(n1)C(c1cc(Br)ccc1F)C(C(=O)N(C)C)=C(C)N2 (stereo not given)"
  MEASURED_ON: "Cytochrome P450 1A2 (Homo sapiens)"
  READING: "25.1 µM (inconclusive)"
- COMPOUND: "CCN(CC)c1ccc(/C=N/Nc2nc(C)cc(O)n2)cc1"
  MEASURED_ON: "Cytochrome P450 1A2 (Homo sapiens)"
  READING: "25.1 µM (inconclusive)"
- COMPOUND: "COC(=O)[C@@]1(Cc2ccc(F)cc2)[C@H]2c3cc(C(=O)N4CCCC4)n(Cc4ccc(C)o4)c3C[C@H]2CN1C(=O)c1ccccc1"
  MEASURED_ON: "Cytochrome P450 1A2 (Homo sapiens)"
  READING: "10 µM (inconclusive)"

---

As shown below, each of these molecules has a reported IC50 value.
- MEASURED_ON: Mannose-6-phosphate isomerase (Homo sapiens, UniProt P34949)
- Sequence (P34949 whole entry): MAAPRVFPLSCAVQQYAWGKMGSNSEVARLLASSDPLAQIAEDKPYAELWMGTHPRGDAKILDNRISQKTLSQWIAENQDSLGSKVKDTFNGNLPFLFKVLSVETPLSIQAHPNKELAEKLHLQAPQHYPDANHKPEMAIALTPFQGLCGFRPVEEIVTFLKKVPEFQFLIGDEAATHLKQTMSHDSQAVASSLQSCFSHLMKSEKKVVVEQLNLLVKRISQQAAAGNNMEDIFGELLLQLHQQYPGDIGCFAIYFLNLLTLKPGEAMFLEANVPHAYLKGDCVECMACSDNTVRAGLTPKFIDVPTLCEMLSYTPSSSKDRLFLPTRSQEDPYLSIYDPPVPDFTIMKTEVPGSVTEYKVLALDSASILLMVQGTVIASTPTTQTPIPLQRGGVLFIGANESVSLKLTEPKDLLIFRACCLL
- ASSAY_PROTOCOL: human PMI inhibitors, high substrate, primary screen, biochemical, fluorescence intensity, high mannose 6-phosphate (AID 1220)

- COMPOUND_STRUCTURE_STRING: "CCOc1cc(CNc2ccc3[nH]c(O)nc3c2)ccc1OCC(=O)NC(C)(C)C"
  IC50: "> 50 µM (not active)"
- COMPOUND_STRUCTURE_STRING: "N#Cc1ccc(/N=c2\\ssnc2Cl)cc1"
  IC50: "6.34 µM (not active)"
- COMPOUND_STRUCTURE_STRING: "Nc1cc2nc[nH]c2cc1N"
  IC50: "> 50 µM (not active)"
- COMPOUND_STRUCTURE_STRING: "Cc1ccc(NCCC(=O)c2cccc([N+](=O)[O-])c2)c(C)c1"
  IC50: "> 50 µM (not active)"

---

Recorded IC50, one value per entry.
- MEASURED_ON: High affinity choline transporter 1 (Homo sapiens)
- Sequence (Q9GZV3 whole entry): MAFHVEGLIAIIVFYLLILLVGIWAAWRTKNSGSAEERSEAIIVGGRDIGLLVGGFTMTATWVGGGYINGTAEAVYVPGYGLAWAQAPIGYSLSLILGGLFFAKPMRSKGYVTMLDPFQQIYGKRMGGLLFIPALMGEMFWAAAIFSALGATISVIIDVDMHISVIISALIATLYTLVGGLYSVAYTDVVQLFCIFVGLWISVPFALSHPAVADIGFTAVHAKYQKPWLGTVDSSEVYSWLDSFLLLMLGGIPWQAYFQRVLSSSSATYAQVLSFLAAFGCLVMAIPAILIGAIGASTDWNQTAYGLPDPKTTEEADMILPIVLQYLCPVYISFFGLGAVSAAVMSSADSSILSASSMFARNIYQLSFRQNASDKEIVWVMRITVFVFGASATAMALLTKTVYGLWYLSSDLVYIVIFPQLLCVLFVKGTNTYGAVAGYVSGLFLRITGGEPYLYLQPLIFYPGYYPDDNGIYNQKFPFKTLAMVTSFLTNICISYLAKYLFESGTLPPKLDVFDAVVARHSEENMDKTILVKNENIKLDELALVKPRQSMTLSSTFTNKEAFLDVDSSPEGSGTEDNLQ
- ASSAY_PROTOCOL: CHT inhibitors, dose response, cell-based, 5-point CRC, membrane potential dye (AID 504840)
- Type: functional
Active and inactive are the calls of the source.
ATTRIBUTE_MEASURED: IC50

- COMPOUND: "CCCCCc1c2c(cc(O)c1C(=O)O)OC(=O)c1c(cc(OC)cc1C(=O)CCCC)O2"
  MEASURED_ON: "High affinity choline transporter 1 (Homo sapiens)"
  ATTRIBUTE_MEASURED: "IC50"
  READING: "11 µM (active)"
- COMPOUND: "Cn1c(-c2ccccc2)cnc1NCc1ccccc1"
  MEASURED_ON: "High affinity choline transporter 1 (Homo sapiens)"
  ATTRIBUTE_MEASURED: "IC50"
  READING: "11.5 µM (active)"
- COMPOUND: "CC(C)OC(=O)CN1CCN(C2c3ccccc3-c3ccccc32)CC1"
  MEASURED_ON: "High affinity choline transporter 1 (Homo sapiens)"
  ATTRIBUTE_MEASURED: "IC50"
  READING: "10.7 µM (active)"
- COMPOUND: "COc1ccc(C(CCN2CCCCC2)c2c(OC)cc(OC)c3c(-c4ccccc4)cc(=O)oc23)cc1 (stereo not given)"
  MEASURED_ON: "High affinity choline transporter 1 (Homo sapiens)"
  ATTRIBUTE_MEASURED: "IC50"
  READING: "12.6 µM (active)"
- COMPOUND: "Cc1cccc(NC(=O)c2[nH]nc([N+](=O)[O-])c2Br)c1C"
  MEASURED_ON: "High affinity choline transporter 1 (Homo sapiens)"
  ATTRIBUTE_MEASURED: "IC50"
  READING: "4.1 µM (active)"

---

- MEASURED_ON: Luciferin 4-monooxygenase (Photinus pyralis)
- Sequence (P08659 whole entry): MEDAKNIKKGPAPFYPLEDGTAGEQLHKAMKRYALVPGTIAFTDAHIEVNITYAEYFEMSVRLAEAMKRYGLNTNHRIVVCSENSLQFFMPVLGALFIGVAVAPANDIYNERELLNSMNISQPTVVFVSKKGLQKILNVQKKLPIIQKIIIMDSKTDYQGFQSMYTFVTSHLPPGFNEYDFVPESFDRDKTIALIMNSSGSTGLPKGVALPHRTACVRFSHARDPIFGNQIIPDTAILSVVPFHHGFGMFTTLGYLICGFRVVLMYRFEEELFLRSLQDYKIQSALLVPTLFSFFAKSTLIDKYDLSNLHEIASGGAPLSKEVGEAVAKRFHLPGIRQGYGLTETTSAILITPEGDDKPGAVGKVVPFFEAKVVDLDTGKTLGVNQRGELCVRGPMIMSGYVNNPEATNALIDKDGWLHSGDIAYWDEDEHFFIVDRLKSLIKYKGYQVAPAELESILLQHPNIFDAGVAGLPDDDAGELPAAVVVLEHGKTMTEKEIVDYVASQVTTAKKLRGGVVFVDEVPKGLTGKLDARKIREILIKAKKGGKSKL
- ASSAY_PROTOCOL: firefly luciferase enzyme inhibitors, dose response, biochemical, luminescence (AID 1891)
Active and inactive are the calls of the source.

- COMPOUND_STRUCTURE_STRING: "Cc1ccc(CNC(=O)c2cnc3ccccc3n2)cc1"
  EC50: "> 112 µM (not active)"
- COMPOUND_STRUCTURE_STRING: "NC(=NOCc1ccc([N+](=O)[O-])cc1)c1ccccn1"
  EC50: "9.46 µM (active)"
- COMPOUND_STRUCTURE_STRING: "COc1ccc(NC(=O)c2ccccn2)cc1OC"
  EC50: "> 112 µM (not active)"
- COMPOUND_STRUCTURE_STRING: "COc1ccc(/C=C2\\CCc3c2nc2ccccc2c3C(=O)O)cc1OC"
  EC50: "6.42 µM (active)"
- COMPOUND_STRUCTURE_STRING: "COc1ccc(C(=O)Nc2ccccc2C(=O)N/N=C/c2ccc(O)c(OC)c2)cc1"
  EC50: "0.149 µM (active)"

---

Readings of EC50 for the listed compounds
- MEASURED_ON: RNA-binding protein pos-1 (Caenorhabditis elegans)
- Sequence (G5EF15 whole entry, the tested form may be a part): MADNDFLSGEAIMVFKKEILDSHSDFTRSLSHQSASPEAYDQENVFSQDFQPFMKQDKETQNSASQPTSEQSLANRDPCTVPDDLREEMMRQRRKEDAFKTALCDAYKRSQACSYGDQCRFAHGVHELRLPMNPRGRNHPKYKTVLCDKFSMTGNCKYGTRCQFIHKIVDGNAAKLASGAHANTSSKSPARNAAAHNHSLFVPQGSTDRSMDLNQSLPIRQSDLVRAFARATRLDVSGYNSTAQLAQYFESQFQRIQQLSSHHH
- ASSAY_PROTOCOL: inhibitors of POS-1/mex-3 RNA binding, dose response, biochemical, fluorescence polarization (AID 1964);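 also: purified POS-1 fused to maltose binding protein made in E. coli; potency of compounds blocking POS-1 binding to fluorescent RNA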
Calls of active or inactive are those of the source.
ATTRIBUTE_MEASURED: EC50

- COMPOUND: "O=C1c2cccc3c(N4CCCCC4)ccc(c23)C(=O)N1c1ccccn1"
  READING: "> 300 µM (inconclusive)"
- COMPOUND: "CCOc1ccc(S(=O)(=O)Nc2cc(Sc3nnc[nH]3)c3oc(=O)sc3c2)cc1"
  READING: "65.8 µM (active)"
- COMPOUND: "Cc1cccc2cc3c(N)c(C(=O)Nc4ccc(N5CCOCC5)cc4)sc3nc12"
  READING: "> 300 µM (not active)"
- COMPOUND: "CCOCCCn1/c(=N/C(=O)c2ccc(OC)c(OC)c2)c(C#N)cc2c(=O)n3cccc(C)c3nc21"
  READING: "26.8 µM (active)"
- COMPOUND: "Cc1cc(C=C2C(=O)NC(=O)NC2=O)c(C)n1-c1cccnc1"
  READING: "64.3 µM (active)"
- COMPOUND: "CCOC(=O)c1ccc2c(c1)C1C=CCC1C(C(=O)OCC)N2 (configuration not stated)"
  READING: "> 300 µM (not active)"
- COMPOUND: "COc1ccc(/C=c2\\sc3nc(=O)c(C)nn3c2=O)c(OC)c1"
  READING: "> 300 µM (not active)"
